All figures here come from patent US8445217B2.

Molecular target: Calmodulin (CaM) (Homo sapiens, UniProt P0DP23)
Construct: purchased Sigma, St. Louis, Mo
Test: BSI free-solution CaM-Ca^2+ interaction
Type: binding
Conditions: 5 μM CaM, pH 7.5, 25° C.; read-out: Kd CaM-Ca^2+, steady-state values analysed by Prism
Experimental: Homogeneous, label-free CaM-Ca^2+ interactions are quantified with BSI by real-time monitoring the sequential reactions of a constant concentration of 5 μM CaM with Ca^2+ solutions increasing in concentrations from 12.5-100 μM (FIG. 24A). […] These experiments were conducted at 25±0.01° C. maintained by a thermoelectric temperature controller (MELCOR, Trenton, N.J.) coupled to a Peltier device. Binding experiments were monitored in real-time at frequencies ca. 50-100 Hz. […]
Recorded metric: pKd
Please keep in mind that pKd is minus log10 of the molar concentration; only the number is needed.

Any idea what pKd was measured for `[Ca+2]` ?
4.75
